# System: HEK-293T
# Method summary: Multiplex assay against HEK293T
# Format: toxicity, cell-based
# Condition label: human, 48 h, 10 µM, compound concentration 10 uM, replicate 2
# met = Population Apoptotic (%) below 60% (exclusive); not met = Population Apoptotic (%) at/above 60%

{"columns": ["Compound", "Label"],
 "data": [
  ["CC[C@H](C)C(=O)O[C@H]1C[C@@H](C)C=C2C=C[C@H](C)[C@H](CC[C@@H]3C[C@@H](O)CC(=O)O3)[C@H]21 [LOVASTATIN]", "met"]
]}

Is 60% strictly greater than the compound's reported Population Apoptotic (%)? compound: C[C@@H](NCCCc1cccc(C(F)(F)F)c1)c1cccc2ccccc12.Cl [CINACALCET HYDROCHLORIDE] not met

Is 60% strictly greater than the compound's reported Population Apoptotic (%)? compound: `Cc1csc2c(N[C@@H](C)CN3CCN(S(=O)(=O)c4ccc(Cl)c(Cl)c4)CC3)ncnc12` not met

I wonder whether CNCc1ccccc1-c1csc([C@H](C)Nc2nc(C)nc3cc(OC)c(OC)cc23)c1 [BAY-294] has Population Apoptotic (%) below 60%. Can you tell? not met

Decide: Population Apoptotic (%) of `C=CC(=O)Nc1cccc(C(=O)Nc2ccc(Nc3cc(-c4[nH]c(SC)nc4C)ccn3)cc2)c1` strictly below 60%? met

Record CN1CCN(CCOc2cc(OC3CCOCC3)c3c(Nc4c(Cl)ccc5c4OCO5)ncnc3c2)CC1 [SARACATINIB] : is its Population Apoptotic (%) strictly below 60%? not met

Item Cc1nc(-c2ccc(-c3ccc(C(=O)N4CCc5cc6c(cc54)C4(CCN(C)CC4)CO6)cc3)c(C)c2)no1 [SB-224289] : Population Apoptotic (%) beneath 60%, strictly? not met

Is 60% strictly greater than the compound's reported Population Apoptotic (%)? compound: CN(C)CC#Cc1ccc(OCCCc2sc(N3CCc4cccc(C(=O)Nc5nc6ccccc6s5)c4C3)nc2C(=O)O)c(F)c1 [A-1155463] met

Is Population Apoptotic (%) of Cc1c(-c2ccc(O)cc2)n(Cc2ccc(OCCN3CCCCCC3)cc2)c2ccc(O)cc12 [BAZEDOXIFENE] strictly below 60%? not met

# strict comparison: is reported Population Apoptotic (%) < 60%? input = COc1ncc(-c2ccc3nccc(-c4ccnnc4)c3c2)cc1NS(=O)(=O)c1ccc(F)cc1F [OMIPALISIB] met

Does this compound meet the criterion Population Apoptotic (%) < 60%? CCOCCn1cc(C(=O)Nc2ccc(-n3nc(-c4cccnc4)cc3C(F)(F)F)cn2)ccc1=O [BI 1935] met

Does the reported Population Apoptotic (%) of CN1CCCC(n2nc(Cc3ccc(Cl)cc3)c3ccccc3c2=O)CC1.Cl (configuration not stated) [AZELASTINE HYDROCHLORIDE] stay below 60%? not met

Dear reviewer, please state whether CN(C)C(=O)N[C@H]1CC[C@H](CCN2CCN(c3cccc(Cl)c3Cl)CC2)CC1.Cl [CARIPRAZINE HYDROCHLORIDE] has Population Apoptotic (%) strictly beneath 60%. not met

Strictly below 60% in Population Apoptotic (%)? Nc1c(C(=O)NCc2ccc(C(=O)NCCCC3CCCCC3)cc2)cnn1-c1ccccc1 [SR-318] not met

Please check: Population Apoptotic (%) for c1cn2cc(-c3ccc4cn[nH]c4c3)nc(Nc3ccc(N4CCOCC4)cc3)c2n1 [ENTOSPLETINIB] , strictly under 60% or not? met

Does `Cn1cc(-c2[nH]c3cc(NC(=O)[C@H](N)C4CCCCC4)cc4c3c2C=NNC4=O)cn1` have Population Apoptotic (%) strictly under 60%? not met

Hi there! Is Population Apoptotic (%) for Cl.N#Cc1ccc2[nH]cc(CCCCN3CCN(c4ccc5oc(C(N)=O)cc5c4)CC3)c2c1 [VILAZODONE HYDROCHLORIDE] below 60%, do you know? not met
